tested on: AR mRNA; experiment: Dose-dependent antisense inhibition of human AR in HuVEC cells (electroporation, qRT-PCR RTS3559, IC50); format: cell-based; conditions: Table 36; 187.5 nM, HuVEC, electroporation, approximately 16 hours
Oligonucleotides are written 5' to 3', each unit as a sugar letter and its base; * is a phosphorothioate linkage, no mark a phosphodiester; rarer units and linkages stand in square brackets, end groups in braces. Plain capitals give the bases only. k = constrained ethyl (cEt); [5mC] = 5-methylcytosine; d = 2'-deoxy (DNA)

>  <substance>
584165 (kT*k[5mC]*kA*dA*dT*d[5mC]*dT*dA*dG*dA*dT*dA*d[5mC]*k[5mC]*kA*kT; antisense) [compound 584165]

>  <percent inhibition of AR, 187.5 nM, %>
34

$$$$
>  <substance>
584245 (kA*kG*kG*dT*dT*dA*dG*dG*dG*dA*dG*dT*dA*kG*kG*k[5mC]; antisense) [compound 584245]

>  <percent inhibition of AR, 187.5 nM, %>
33

$$$$
>  <substance>
584263 (kT*kA*kG*dG*dG*dT*dT*dT*dG*dG*dT*d[5mC]*dA*kG*kA*kA; antisense) [compound 584263]

>  <percent inhibition of AR, 187.5 nM, %>
24

$$$$
>  <substance>
584157 (kT*kT*kG*dA*dT*dG*dG*dA*dA*dT*dG*d[5mC]*dT*kG*kA*kT; antisense) [compound 584157]

>  <percent inhibition of AR, 187.5 nM, %>
6

$$$$
>  <substance>
584469 (kT*kT*kT*dG*dG*dT*dA*dA*d[5mC]*dA*dT*dT*dA*kG*kG*k[5mC]; antisense) [compound 584469]

>  <percent inhibition of AR, 187.5 nM, %>
46

$$$$
>  <substance>
584361 (k[5mC]*kT*kT*d[5mC]*dA*dT*dT*dG*d[5mC]*dA*dG*dG*dT*k[5mC]*kT*kG; antisense) [compound 584361]

>  <percent inhibition of AR, 187.5 nM, %>
18

$$$$
>  <substance>
549372 (kA*kA*kG*dT*dT*dG*dT*dA*dG*dT*dA*dG*dT*k[5mC]*kG*k[5mC]) [compound 549372]

>  <percent inhibition of AR, 187.5 nM, %>
26

$$$$
>  <substance>
584495 (kA*kT*kG*dG*dT*dT*dG*dT*d[5mC]*d[5mC]*dT*dG*dT*kA*k[5mC]*kA; antisense) [compound 584495]

>  <percent inhibition of AR, 187.5 nM, %>
14

$$$$
>  <substance>
584168 (k[5mC]*kT*kG*dA*dT*dT*dA*dG*d[5mC]*dT*dA*dT*dG*kA*k[5mC]*k[5mC]; antisense) [compound 584168]

>  <percent inhibition of AR, 187.5 nM, %>
32

$$$$
>  <substance>
549458 (kG*kT*kT*dG*dA*dT*dT*dT*dA*dA*dT*dG*dG*kT*kT*kG) [compound 549458]

>  <percent inhibition of AR, 187.5 nM, %>
51

$$$$
>  <substance>
584274 (kG*kT*kT*dA*dT*d[5mC]*dT*dT*dA*d[5mC]*dT*d[5mC]*dT*k[5mC]*k[5mC]*k[5mC]; antisense) [compound 584274]

>  <percent inhibition of AR, 187.5 nM, %>
36

$$$$
>  <substance>
584269 (k[5mC]*k[5mC]*kT*dT*dA*dT*dG*dG*dA*dT*dG*d[5mC]*dT*kG*k[5mC]*kT) [compound 584269]

>  <percent inhibition of AR, 187.5 nM, %>
26

$$$$
>  <substance>
584242 (k[5mC]*k[5mC]*kA*dT*dT*dT*dG*dT*dG*d[5mC]*d[5mC]*dA*dA*kA*k[5mC]*k[5mC]; antisense) [compound 584242]

>  <percent inhibition of AR, 187.5 nM, %>
38

$$$$
>  <substance>
584329 (kG*kG*kT*dT*dA*dT*dG*dG*dT*dT*d[5mC]*dT*dG*kT*k[5mC]*kT; antisense) [compound 584329]

>  <percent inhibition of AR, 187.5 nM, %>
17

$$$$
>  <substance>
584158 (kG*kG*kT*dT*dA*dA*d[5mC]*dT*dT*dT*d[5mC]*dT*d[5mC]*kT*kG*kA; antisense) [compound 584158]

>  <percent inhibition of AR, 187.5 nM, %>
37

$$$$
>  <substance>
584468 (k[5mC]*kA*kT*dT*dG*dT*dA*d[5mC]*dT*dA*dT*dG*d[5mC]*k[5mC]*kA*kG) [compound 584468]

>  <percent inhibition of AR, 187.5 nM, %>
26

$$$$
>  <substance>
584233 (kG*kG*kA*dT*dT*d[5mC]*dT*d[5mC]*dT*dA*d[5mC]*dA*d[5mC]*kA*k[5mC]*kA; antisense) [compound 584233]

>  <percent inhibition of AR, 187.5 nM, %>
30

$$$$
